B1: glmS ribozyme (parent)
chain: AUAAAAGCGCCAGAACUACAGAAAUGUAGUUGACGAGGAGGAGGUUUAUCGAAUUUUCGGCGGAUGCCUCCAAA

# Variants of: B1
# assay info: KM; higher = weaker cofactor use; RNA array
# conditions: with glucosamine-6-phosphate
Listed here: items and their measured log10 of KM.
metric: log10 of KM (log10 of the value in µM)

{"mutations": "A39G U46A", "log10 of KM": 3.33}
{"mutations": "G41C U45A", "log10 of KM": 3.09}
{"mutations": "U45G C68U", "log10 of KM": 3.72}
{"mutations": "G41A C71A", "log10 of KM": 2.81}
{"mutations": "C10G C61A", "log10 of KM": 2.26}
{"mutations": "G40A A52G", "log10 of KM": 3.17}
{"mutations": "U46G A53U", "log10 of KM": 3.34}
{"mutations": "A15C U31C", "log10 of KM": 3.58}
{"mutations": "G59A C71U", "log10 of KM": 3.08}
{"mutations": "U47G A53C", "log10 of KM": 3.40}
{"mutations": "A39C U55C", "log10 of KM": 3.48}
{"mutations": "U30G G66U", "log10 of KM": 3.25}
{"mutations": "U31A G37C", "log10 of KM": 3.26}
{"mutations": "U47C C67G", "log10 of KM": 3.24}
{"mutations": "C11U C16G", "log10 of KM": 3.45}
{"mutations": "C11A G29A", "log10 of KM": 3.41}
{"mutations": "U55G A64U", "log10 of KM": 3.54}
{"mutations": "C8A G60A", "log10 of KM": 1.94}
{"mutations": "A52U A53U", "log10 of KM": 3.62}
{"mutations": "A14G G59A", "log10 of KM": 3.30}
{"mutations": "G32C C58A", "log10 of KM": 3.91}
{"mutations": "A14U U46G", "log10 of KM": 3.33}
{"mutations": "U46A U65C", "log10 of KM": 3.39}
{"mutations": "A12U G37A G40C", "log10 of KM": 3.63}
{"mutations": "U54G C71G", "log10 of KM": 2.71}
{"mutations": "U65G C70A", "log10 of KM": 2.92}
{"mutations": "U65A C71G", "log10 of KM": 3.23}
{"mutations": "U57C C68A", "log10 of KM": 2.26}
{"mutations": "A52U U54A", "log10 of KM": 3.22}
{"mutations": "A39C A42G", "log10 of KM": 3.17}
{"mutations": "A39U U46C", "log10 of KM": 3.44}
{"mutations": "U65A G66C", "log10 of KM": 3.15}
{"mutations": "U54G G66U", "log10 of KM": 3.20}
{"mutations": "A42C C67A", "log10 of KM": 3.06}
{"mutations": "A64G U65G", "log10 of KM": 3.65}
{"mutations": "C16U G41C", "log10 of KM": 3.01}
{"mutations": "A42G U46A", "log10 of KM": 3.08}
{"mutations": "A39U G66C", "log10 of KM": 3.81}
{"mutations": "A42G C50U", "log10 of KM": 3.76}
{"mutations": "G29A U54G", "log10 of KM": 3.45}
{"mutations": "U47A A52G", "log10 of KM": 3.71}
{"mutations": "A12U C50A", "log10 of KM": 3.22}
{"mutations": "A42G C71U", "log10 of KM": 2.86}
{"mutations": "C70A C71U", "log10 of KM": 2.58}
{"mutations": "U54C A64C", "log10 of KM": 3.55}
{"mutations": "A15U U56G", "log10 of KM": 3.52}
{"mutations": "A53C G60A", "log10 of KM": 3.85}
{"mutations": "U31A U65G", "log10 of KM": 3.38}
{"mutations": "A15U A33C", "log10 of KM": 2.91}
{"mutations": "U47C A52G", "log10 of KM": 3.55}
{"mutations": "G40A U56C", "log10 of KM": 3.36}
{"mutations": "A15U C70G", "log10 of KM": 2.24}
{"mutations": "U46C U49G", "log10 of KM": 2.91}
{"mutations": "A15C A42G", "log10 of KM": 3.16}
{"mutations": "U56G", "log10 of KM": 3.50}
{"mutations": "A15U U65A", "log10 of KM": 3.03}
{"mutations": "G41U A42G", "log10 of KM": 3.09}
{"mutations": "A6C U54G", "log10 of KM": 3.70}
{"mutations": "A12U G13U", "log10 of KM": 3.05}
{"mutations": "U55A", "log10 of KM": 3.25}
{"mutations": "A12U U45G", "log10 of KM": 3.27}
{"mutations": "A52G A53G", "log10 of KM": 3.57}
{"mutations": "U45C A53U", "log10 of KM": 3.64}
{"mutations": "G32U A53U", "log10 of KM": 3.66}
{"mutations": "G40U A52G", "log10 of KM": 3.17}
{"mutations": "A39G C67G", "log10 of KM": 2.78}
{"mutations": "G29U G32C", "log10 of KM": 3.44}
{"mutations": "U65G U69A", "log10 of KM": 3.16}
{"mutations": "G13A U47C", "log10 of KM": 3.86}
{"mutations": "A15U A64G", "log10 of KM": 3.30}
{"mutations": "U65A G66U", "log10 of KM": 3.50}
{"mutations": "U30A U45A", "log10 of KM": 3.11}
{"mutations": "U31G U65G", "log10 of KM": 3.62}
{"mutations": "A12U A39C U56G", "log10 of KM": 3.54}
{"mutations": "U47A C71G", "log10 of KM": 3.05}
{"mutations": "A12C A15C", "log10 of KM": 3.30}
{"mutations": "A12U U57G", "log10 of KM": 3.35}
{"mutations": "A15U U30C", "log10 of KM": 3.38}
{"mutations": "G32A C58G", "log10 of KM": 3.81}
{"mutations": "A53U G66A", "log10 of KM": 3.37}
{"mutations": "A6G U54G", "log10 of KM": 3.09}
{"mutations": "U49A U55A", "log10 of KM": 3.78}
{"mutations": "C11U U55A", "log10 of KM": 3.10}
{"mutations": "G29U U54C", "log10 of KM": 3.19}
{"mutations": "G13C U30C", "log10 of KM": 3.17}
{"mutations": "G32U U55G U56A", "log10 of KM": 3.74}
{"mutations": "U46G G66U C67U", "log10 of KM": 2.91}
{"mutations": "A14G G60A", "log10 of KM": 3.48}
{"mutations": "U55G U65G", "log10 of KM": 3.54}
{"mutations": "G40U G66C", "log10 of KM": 3.31}
{"mutations": "C11A U30A U45G", "log10 of KM": 3.57}
